Ok so here's the combined literature set: IC50 for ASK1 (Homo sapiens (Human)).

Worked cases, IC50 given:
{"line-notation": "C[C@H](CO)n1nnnc1-c1cccc(NC(=O)c2cc3c(cn2)CCN(C(=O)NCc2ccccc2)C3)n1", "test-readout": "IC50", "readout-value": "1 to 10 nM"}
{"line-notation": "CC(C)c1nnnn1-c1cccc(NC(=O)c2cc3c(cc2F)CCN(C(=O)OCc2ccccc2)C3)n1", "test-readout": "IC50", "readout-value": "> 1000 nM"}
{"line-notation": "CC(C)n1cnnc1-c1cccc(N2CSc3ccc(-c4cnn(CC5CC5)c4)cc3C2=O)n1", "test-readout": "IC50", "readout-value": "7.3 nM"}
{"line-notation": "CC(C)n1nnnc1-c1cccc(NC(=O)c2cc(-c3cnn(C4CC4)c3)c(N3CCOCC3)cn2)n1", "test-readout": "IC50", "readout-value": "1 to 10 nM"}

Please examine the following record next.
Input: Entry under review: "Cc1cc(F)c(C(=O)Nc2cccc(-n3nnnc3C(C)C)n2)cc1-c1cn(C(C)C)cn1" . Reported IC50?
Output: > 1000 nM
